Experiment: Particle size and polydispersity index of nanoparticle compositions (Zetasizer Nano ZS)
Format: physicochemical
Conditions: Table 1C; compositions for subcutaneous administration
Method: A Zetasizer Nano ZS (Malvern Instruments Ltd, Malvern, Worcestershire, UK) can be used to determine the particle size, the polydispersity index (PDI) and the zeta potential of the nanoparticle compositions in 1×PBS in determining particle size and 15 mM PBS in determining zeta potential.
Quick rule for you: PDI at 0.2 or higher means Satisfied, lower means Not satisfied.

Please review the entries below; each comes with its answer.
compound | classLabel
CCCCCCCCC(CC)OC(=O)CCCN(CCO)CCCCCCCC(=O)OC(CCCCCCCC)CCCCCCCC (stereo not shown) | Not satisfied
CCCCCCCCCOC(=O)CCCCCCCN(CCO)CCCCCCCOC(=O)C(CCCCCCCC)CCCCCCCC | Not satisfied
CCCCCCCCCOC(=O)CCCCCCCN(CCCCCCCC(=O)OC(CCCCCCCC)CCCCCCCC)CCCNC(=O)NC | Satisfied
CCCCCCCCCOC(=O)CCCCCCCN(CCCCO)CCCCCCCC(=O)OC(CCCCCCCC)CCCCCCCC | Not satisfied
CCCCCCCCC(C)OC(=O)CCCCCN(CCO)CCCCCCCC(=O)OC(CCCCCCCC)CCCCCCCC (stereo not shown) | Not satisfied

Given the entry CCCCCCCCCOC(=O)CCCCCCCN(CCCCCCCC(=O)OC(CCCCCCCC)CCCCCCCC)CCCNC(=O)N(C)C , answer whether its PDI meets or surpasses 0.2.
Satisfied

Given the entry CCCCCCCCCOC(=O)CCCCCCCN(CCCCCCCC(=O)OC(CCCCCCCC)CCCCCCCC)CCCNC(=S)NC , answer whether its PDI meets or surpasses 0.2.
Not satisfied
